The reported numbers originate from patent US20260373266A1.

- ASSAY SYSTEM: DCAF1 WD40 domain (residues 1077-1390) (Homo sapiens)
- Construct: DCAF1 WD40 domain (residues 1077-1390)
- Sequence (Q9Y4B6 1077-1390): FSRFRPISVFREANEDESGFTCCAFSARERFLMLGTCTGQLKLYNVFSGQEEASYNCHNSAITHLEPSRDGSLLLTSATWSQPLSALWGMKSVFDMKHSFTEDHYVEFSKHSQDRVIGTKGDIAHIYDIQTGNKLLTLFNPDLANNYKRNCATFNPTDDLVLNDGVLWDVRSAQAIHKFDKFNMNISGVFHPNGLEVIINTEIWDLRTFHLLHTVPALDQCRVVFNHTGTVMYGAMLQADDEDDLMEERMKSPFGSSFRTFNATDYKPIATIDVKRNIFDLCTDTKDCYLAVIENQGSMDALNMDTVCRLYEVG
- ASSAY COMMENT: DCAF1 binding assay by SPR (Biacore 8K+), DCAF1-3 KD
- RUN PARAMETERS: 25 °C, read-out: DCAF1-3 SPR (KD)
MEASURED ENDPOINT: Kd

1) CC1=C(c2[nH]ncc2C(=O)N[C@@H](CC(N)=O)c2cccc(Cl)c2)CCCC1 [I-610] :: < 10 µM
2) Fc1cccc(N2CCC[C@@H](Nc3ccnc(N4CCOCC4)c3)C2)c1 [I-18] :: > 200 µM
3) CN1CCN(c2ccc(N3CCC[C@@H](Nc4cc(N5CCOCC5)ccn4)C3)nc2)CC1 [I-686] :: > 200 µM
4) NC(=O)C[C@H](NC(=O)c1cn[nH]c1-c1ccccc1F)c1ccccc1F [I-602] :: < 10 µM
5) NCc1cnc(N2CCCCC2)nc1N[C@@H]1CCCN(c2cccc(F)c2)C1 [I-1010] :: 10 to 100 µM
6) c1ccc2ncc(N3CCC[C@@H](Nc4nccc(N5CCOCC5)n4)C3)cc2c1 [I-46] :: > 200 µM
7) c1cc(N2CCOCC2)cc(N[C@@H]2CCCN(c3ccnc(OC4CC4)c3)C2)n1 [I-687] :: 10 to 100 µM
8) Cc1cc2nccn2cc1N1CCC[C@@H](Nc2cc(N3CCOCC3)ccn2)C1 [I-765] :: > 200 µM

# return Kd for each item in the list
1. COc1c(N[C@@H]2CCCN(c3cccc(F)c3)C2)cncc1N1CCOCC1 [I-544]
2. Fc1cccc(N2C[C@H](F)C[C@@H](Nc3cc(N4CCOCC4)ccn3)C2)c1 [I-275]
3. C#Cc1cccc(F)c1-c1[nH]ncc1C(=O)N[C@@H](CC(N)=O)c1cccc(Cl)c1 [I-591]
4. Cc1c(F)ccc(F)c1-c1c(C(=O)N[C@@H](CC(N)=O)c2cccc(Cl)c2)csc1C(=O)c1ccccc1 [I-944]

Reply text:
1: 100 to 200 µM; 2: > 200 µM; 3: < 10 µM; 4: < 10 µM

Quick one: give me Kd for each item below, same order please.
1. C=CC(=O)NCCCCN1CCN(c2ccnc(N(CCCOCCOCCOCCOCCNC(=O)C[C@@H]3N=C(c4ccc(Cl)cc4)c4c(sc(C)c4C)-n4c(C)nnc43)[C@@H]3CCCN(c4cccc(F)c4)C3)c2)CC1 [I-906]
2. Cc1c(F)ccc(F)c1-c1c(C(=O)N[C@@H](CC(N)=O)c2cccc(Cl)c2)cn(C)c1C(=O)c1ccc(O)cc1 [I-1030]
3. N#Cc1ccccc1[C@H](CC(N)=O)NC(=O)c1cn[nH]c1-c1ccccc1F [I-342]
4. Cc1cnc(N2CCOCC2)cc1N[C@@H]1CCCN(c2cccc(F)c2)C1 [I-404]
5. NCCCc1ccc(N2CCC[C@@H](Nc3cc(N4CCOCC4)ccn3)C2)cc1 [I-856]
6. c1cc(N2CCC[C@@H](Nc3cc(N4CCOCC4)ncn3)C2)c2cnccc2c1 [I-395]
7. Cc1sc2c(c1C)C(c1ccc(Cl)cc1)=N[C@@H](CC(=O)NCCOCCOCCOCCOCCC1CCN(c3ccnc(N4CC[C@@H]5[C@H]4CCCN5c4cccc(F)c4)c3)CC1)c1nnc(C)n1-2 [I-890]

Reply text:
["100 to 200 µM", "< 10 µM", "10 to 100 µM", "> 200 µM", "10 to 100 µM", "> 200 µM", "< 10 µM"]

The following compounds each have a reported value; give each one's Kd.
1. c1ccc2c(N3CCC[C@@H](Nc4cc(N5CCOCC5)ncn4)C3)ccnc2c1 [I-392]
2. c1cnc2ccc(N3CCC[C@@H](Nc4cc(N5CCOCC5)ncn4)C3)cc2c1 [I-400]
3. NC(=O)C[C@H](NC(=O)C1=C(c2c(F)cccc2F)CCNC1)c1cccc(Cl)c1 [I-550]
4. COCCN1CCN(c2cc(N[C@@H]3CCCN(c4cccc(F)c4)C3)ncn2)CC1 [I-378]

Reply text:
1: > 200 µM; 2: > 200 µM; 3: 100 to 200 µM; 4: > 200 µM
